Just for reference, paper PMC7613620 is where these values come from.

Test system: PfYRS knockdown line
Experiment: Growth inhibition of aptamer-regulatable PfYRS knockdown line (luciferase, 72 h)
Type: cell-based, Plasmodium falciparum
Conditions: Plasmodium falciparum, low aTc (1 nm); read-out: IC50 against PfYRS knockdown line
Protocol: 674 Generation and analysis of PfYRS knock-down transfectants 675 A conditional regulatable line for the cytosolic PfYRS (PF3D7_0807900) was generated by integrating the 676 gene regulatable system, TetR-DOZI-RNA aptamer module at the 3'-end of the target gene, in P. falciparum […] 701 controls. Growth inhibition was analysed after 72 h using the Renilla-Glo(R) Luciferase Assay System (ref 702 no E2750 Promega) and the GloMax® Discover Multimode Microplate Reader (Promega), and IC50 values […]

- Smiles code: "Nc1ncnc2c1c(OC(F)F)nn2[C@@H]1O[C@H](COS(N)(=O)=O)[C@@H](O)[C@H]1O"
  IC50 / nM: 0.5

---

Biological target: SUMO-activating enzyme (SAE) (Homo sapiens)
Sequence (Q9UBT2 1-640): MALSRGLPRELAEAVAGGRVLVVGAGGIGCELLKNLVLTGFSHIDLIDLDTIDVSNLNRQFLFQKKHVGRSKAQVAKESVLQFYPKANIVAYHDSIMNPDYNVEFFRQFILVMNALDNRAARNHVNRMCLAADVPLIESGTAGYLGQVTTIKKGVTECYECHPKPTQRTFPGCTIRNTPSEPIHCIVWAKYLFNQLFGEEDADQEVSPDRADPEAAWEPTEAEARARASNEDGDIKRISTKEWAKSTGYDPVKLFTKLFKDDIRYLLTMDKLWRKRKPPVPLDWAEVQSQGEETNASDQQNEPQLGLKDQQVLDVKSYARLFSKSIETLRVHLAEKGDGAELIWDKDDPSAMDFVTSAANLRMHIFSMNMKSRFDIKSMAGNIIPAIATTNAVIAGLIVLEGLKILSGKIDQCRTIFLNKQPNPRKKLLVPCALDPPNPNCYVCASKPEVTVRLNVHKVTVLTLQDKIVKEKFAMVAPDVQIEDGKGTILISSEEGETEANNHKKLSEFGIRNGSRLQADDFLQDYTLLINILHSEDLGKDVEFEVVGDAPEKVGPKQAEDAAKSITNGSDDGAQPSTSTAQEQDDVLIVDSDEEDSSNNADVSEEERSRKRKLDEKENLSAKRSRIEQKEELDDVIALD
Sequence (Q9UBE0 1-346 partner): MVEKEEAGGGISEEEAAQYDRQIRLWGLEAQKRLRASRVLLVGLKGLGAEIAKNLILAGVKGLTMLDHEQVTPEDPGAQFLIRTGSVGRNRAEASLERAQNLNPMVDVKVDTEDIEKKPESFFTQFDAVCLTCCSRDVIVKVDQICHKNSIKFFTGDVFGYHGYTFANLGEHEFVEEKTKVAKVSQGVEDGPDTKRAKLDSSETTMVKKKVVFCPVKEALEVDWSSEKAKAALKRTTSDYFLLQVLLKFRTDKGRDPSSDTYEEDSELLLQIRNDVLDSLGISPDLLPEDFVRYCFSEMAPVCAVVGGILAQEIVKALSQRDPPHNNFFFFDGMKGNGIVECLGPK
pIC50: −log10 of the molar value.
Experimental endpoint: pIC50

- Smiles code: "Nc1ncnc2c1c(OC(F)F)nn2[C@@H]1O[C@H](COS(N)(=O)=O)[C@@H](O)[C@H]1O"
  Experimental endpoint: "pIC50"
  Recorded measurement: "< 6.00"
